- STUDY_TARGET: GFP-Srs2 1-898 (WT) (Saccharomyces cerevisiae, UniProt P12954 1-898)
- Sequence (P12954 1-898): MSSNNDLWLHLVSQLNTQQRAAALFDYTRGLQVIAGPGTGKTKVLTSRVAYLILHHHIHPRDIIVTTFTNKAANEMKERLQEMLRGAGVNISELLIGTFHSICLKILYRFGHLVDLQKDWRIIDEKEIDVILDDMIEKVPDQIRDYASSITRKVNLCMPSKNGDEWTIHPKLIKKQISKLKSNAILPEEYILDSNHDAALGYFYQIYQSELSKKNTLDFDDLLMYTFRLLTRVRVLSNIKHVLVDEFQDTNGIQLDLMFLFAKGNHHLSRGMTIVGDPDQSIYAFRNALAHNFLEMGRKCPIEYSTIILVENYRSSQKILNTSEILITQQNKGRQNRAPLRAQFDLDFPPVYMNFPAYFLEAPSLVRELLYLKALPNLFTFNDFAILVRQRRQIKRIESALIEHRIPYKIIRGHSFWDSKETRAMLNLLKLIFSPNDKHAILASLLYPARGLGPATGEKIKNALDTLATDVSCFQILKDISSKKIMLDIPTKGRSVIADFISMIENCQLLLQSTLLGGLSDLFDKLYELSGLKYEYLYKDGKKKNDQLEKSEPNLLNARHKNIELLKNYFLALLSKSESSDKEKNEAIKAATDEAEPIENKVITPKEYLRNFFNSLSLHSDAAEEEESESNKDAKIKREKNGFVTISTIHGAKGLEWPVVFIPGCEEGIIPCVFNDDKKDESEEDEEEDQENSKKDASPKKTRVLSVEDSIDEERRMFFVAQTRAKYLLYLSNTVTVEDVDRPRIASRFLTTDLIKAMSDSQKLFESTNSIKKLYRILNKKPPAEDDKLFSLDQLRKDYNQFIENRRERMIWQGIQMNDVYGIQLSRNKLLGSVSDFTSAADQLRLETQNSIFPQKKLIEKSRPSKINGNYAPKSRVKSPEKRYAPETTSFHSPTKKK
- PROCEDURE_DETAILS: EMSA; no ATP; 30 mM Tris-HCl pH 7.6, 100 mM KCl, 2 mM MgCl2, 1 mM DTT, 0.2 mg/mL BSA, 30 °C 10 min, no ATP; 1.3 µM (nucleotides) ssDNA, 10-100 nM protein; 10% native PAGE in
- APPLIED_CONDITIONS: protein: recombinant; tags: N-terminal GFP; label: 5' fluorescein

BINDER | Kd, nM
ATTAAGCTCTAAGCCATGAATTCAAATGACCTCTTATCAA (ssDNA) [40-nt ssDNA] | 29

Origin of measurements: paper PMC10709652
